experiment: Recovery in urine after oral administration (absorption and excretion); format: in vivo, male JCL-SD rats; conditions: 20 mg/kg, rat, 20 mg/10 ml/kg in 0.5% methylcellulose, disk method, read-out: Excretion Rate In Urine
property: dose excreted at 24 h (%)

molecule: C[C@H]1CN(c2c(F)cc3c(=O)c(C(=O)O)cn4c3c2CCN4C)C[C@H]1N (single isomer, unassigned)
result.number: 59.7

###

test: Recovery in bile after oral administration (absorption and excretion); format: in vivo, rats; settings: 20 mg/kg, rat, prepared as for urine (20 mg/10 ml/kg), disk method, read-out: Excretion Rate In Bile

compound: C[C@H]1CN(c2c(F)cc3c(=O)c(C(=O)O)cn4c3c2CCN4C)C[C@H]1N (single isomer, unassigned) [Compound 30]
unit.text: %
dose excreted at 24 h: 3.8
